EXPERIMENT_SUMMARY: Sirius T3 automated potentiometric titrations with n-octanol, log P / log D
RUN_CONDITIONS: n-octanol/water
MEASUREMENT_LABEL: logP
Write no unit; give the number alone.

Ask: Recorded logP of CN(C)CCc1c[nH]c2ccc(C[C@H]3COC(=O)N3)cc12 , please.
Reply: 1.19

Ask: Field entry: CNCCC=C1c2ccccc2CCc2ccccc21
Reply: 4.29

Ask: Field entry: CN1CCN(CCCN2c3ccccc3Sc3ccc(C(F)(F)F)cc32)CC1
Reply: 6.14

Ask: Field entry: CSc1ccc2c(c1)N(CCC1CCCCN1C)c1ccccc1S2 (stereo not shown)
Reply: 5.38

* * *

So I've got a bunch of compounds here, and I need their logD values.
EXPERIMENT_SUMMARY: Sirius T3 automated potentiometric titrations with n-octanol, log P / log D
RUN_CONDITIONS: n-octanol/water, pH 7.4
Write no unit; give the number alone.

Ask: Recorded logD of CN1CCN(C2=Nc3cc(Cl)ccc3Nc3ccccc32)CC1 , please.
Reply: 3.52

Ask: Field entry: CN1CCN2c3ccccc3Cc3ccccc3C2C1 (stereo not drawn)
Reply: 3.5

Ask: Field entry: O=C(CCCN1CCC(O)(c2ccc(Cl)cc2)CC1)c1ccc(F)cc1
Reply: 3.18

Ask: Field entry: CN1CCN(CCCN2c3ccccc3Sc3ccc(C(F)(F)F)cc32)CC1
Reply: 5.53

Ask: Field entry: CN(C)CCC=C1c2ccccc2CCc2ccccc21
Reply: 2.84

Ask: Field entry: CN(C)CCc1c[nH]c2ccc(C[C@H]3COC(=O)N3)cc12
Reply: -1.01

Ask: Field entry: CN(C)CCCN1c2ccccc2Sc2ccccc21
Reply: 2.55

Ask: Field entry: C[C@H]1COc2c(N3CCN(C)CC3)c(F)cc3c(=O)c(C(=O)O)cn1c23
Reply: 0.77

Ask: Field entry: O=C(CCCN1CCC(O)(c2ccc(Br)cc2)CC1)c1ccc(F)cc1
Reply: 2.81

Ask: Field entry: CN(C)CCCN1c2ccccc2Sc2ccc(Cl)cc21
Reply: 3.43

Ask: Field entry: O=C(O)c1ccccc1O
Reply: -0.98

Ask: Field entry: OCCOCCN1CCN(C(c2ccccc2)c2ccc(Cl)cc2)CC1 (stereo not drawn) [hydroxyzine]
Reply: 3.34

Ask: Field entry: CC(C)Cc1ccc(C(C)C(=O)O)cc1 (stereo not drawn)
Reply: 1.07

Ask: Field entry: COc1ccc(C(CN(C)C)C2(O)CCCCC2)cc1 (stereo not drawn)
Reply: 0.7

Ask: Field entry: CNCCc1ccccn1
Reply: -1.95

* * *

So I've got a bunch of compounds here, and I need their pKa values.
EXPERIMENT_SUMMARY: Sirius T3 automated potentiometric (pH-metric) titrations, pKa
RUN_CONDITIONS: ionic strength adjusted (ISA) water ([…] KCl), pKa ± SD, […] ISA water or Yasuda–Shedlovsky extrapolation from methanol cosolvent; value used for regression
Write no unit; give the number alone.

Ask: Recorded pKa of CN(C)CCCN1c2ccccc2Sc2ccc(Cl)cc21 , please.
Reply: 9.07

Ask: Field entry: COc1ccc(C(CN(C)C)C2(O)CCCCC2)cc1 (centres unmarked)
Reply: 9.67

Ask: Field entry: O=C(CCCN1CCC(O)(c2ccc(Br)cc2)CC1)c1ccc(F)cc1
Reply: 8.45

Ask: Field entry: CN(C)CCC=C1c2ccccc2CCc2ccccc21
Reply: 9.23

Ask: Field entry: Cc1cn([C@H]2C[C@H](N=[N+]=[N-])[C@@H](CO)O2)c(=O)[nH]c1=O
Reply: 9.51

Ask: Field entry: CSc1ccc2c(c1)N(CCC1CCCCN1C)c1ccccc1S2 (centres unmarked)
Reply: 9.25

Ask: Field entry: O=C1CC2(CCCC2)CC(=O)N1CCCCN1CCN(c2ncccn2)CC1
Reply: 7.62

Ask: Field entry: CNCCc1ccccn1
Reply: 9.84
